Listed next: entries and their corresponding protein stability index.
B1: GFOD1 (parent)
chain: SDDFCTFQMVLEGGVCCTVTLNFN

variants of: B1; experiment: protein stability index of a GFP-peptide fusion (GPS, HEK-293T) (PSI 1-6); higher = more stable; conditions: c terminus: a fixed tail appended;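 also: lentivirally expressed fusions sorted by FACS into six bins by GFP to DsRed ratio, PSI derived from sequencing read proportions per bin multiplied by bin number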
Could you keep your reply to the number by itself?

Example entries begin here.
C16D : 2.56
Q8H : 3.2
F23N : 4.1
M9H : 2.74
V10Y : 1.13

As a next step, examine the variant that follows.
[in] Name the recorded protein stability index for `T20Q` .
[out] 3.57

The values you see were collected from the supplement of paper PMC10567573.
